Recorded abundance fitness by entry
B1: Tudor domain-containing protein 3, residues 554 to 611; numbered along this chain, Q9H7E2 (parent)
chain: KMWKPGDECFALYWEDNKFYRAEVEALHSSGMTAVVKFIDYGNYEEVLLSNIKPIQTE

# Variants of: B1
# Run Description: abundance fitness (aPCA) (normalised: wild type 0, dead -1); higher = more abundant; growth selection in yeast, the domain comes from the species named
# Test Context: Homo sapiens
Assay Endpoint: abundance fitness

• E45N = -0.368
• A22F = -0.977
• S29P = -0.03
• K4D = -0.678
• Q56S = -0.054
• R21V = -0.508
• P5D = -0.763
• E8C = -0.066
• S29Y = -0.061
• K4Y = -0.17
• A34L = -0.404
• W3T = -0.615
• V36A = -0.92
• V36S = -0.913
• E58D = -0.058
• H28D = -0.144
• Y41M = -0.086
• A26H = -0.031
• A26R = 0.049
• K53V = -0.194
• N43C = -0.059
• N43G = -0.162
• V35D = -0.426
• Y13G = -0.252
• E58N = 0.049
• K1V = -0.225
• V36D = -0.996
• W14P = 0.041
• S50T = 0.059
• D16H = -0.116
• S30V = -0.501
• I52M = 0.028
• N43K = 0.093
• C9E = -0.887
• K18W = -0.736
• I55K = -0.139
• H28M = -0.118
• E15T = -0.139
• T33G = -0.444
• R21D = -0.582
• M2K = -0.36
• C9N = -0.82
• R21H = -0.143
• P54N = -0.41
• V47T = -0.966
• F38K = -1.13
• L12H = -0.552
• L12Y = -0.754
• F19K = -0.85
• E15P = -0.185
• F10E = 0.023
• E23G = -0.596
• F38I = -0.852
• D16P = -0.602
• A34R = -0.85
• E23M = -0.005
• E46W = -0.259
• F38A = -0.878
• K37P = -0.948
• S29F = -0.186
• K4R = -0.232
• Y20G = -0.732
• K1S = -0.283
• N51C = -0.205
• F19L = -0.472
• K37Y = -0.098
• L48Q = -0.008
• L12S = -0.725
• D16V = -0.722
• I55T = -0.18
• D16N = -0.417
• S30C = -0.109
